TEST SYSTEM: Toll-like receptor 4 (Homo sapiens, UniProt O00206)
Sequence (O00206 whole entry): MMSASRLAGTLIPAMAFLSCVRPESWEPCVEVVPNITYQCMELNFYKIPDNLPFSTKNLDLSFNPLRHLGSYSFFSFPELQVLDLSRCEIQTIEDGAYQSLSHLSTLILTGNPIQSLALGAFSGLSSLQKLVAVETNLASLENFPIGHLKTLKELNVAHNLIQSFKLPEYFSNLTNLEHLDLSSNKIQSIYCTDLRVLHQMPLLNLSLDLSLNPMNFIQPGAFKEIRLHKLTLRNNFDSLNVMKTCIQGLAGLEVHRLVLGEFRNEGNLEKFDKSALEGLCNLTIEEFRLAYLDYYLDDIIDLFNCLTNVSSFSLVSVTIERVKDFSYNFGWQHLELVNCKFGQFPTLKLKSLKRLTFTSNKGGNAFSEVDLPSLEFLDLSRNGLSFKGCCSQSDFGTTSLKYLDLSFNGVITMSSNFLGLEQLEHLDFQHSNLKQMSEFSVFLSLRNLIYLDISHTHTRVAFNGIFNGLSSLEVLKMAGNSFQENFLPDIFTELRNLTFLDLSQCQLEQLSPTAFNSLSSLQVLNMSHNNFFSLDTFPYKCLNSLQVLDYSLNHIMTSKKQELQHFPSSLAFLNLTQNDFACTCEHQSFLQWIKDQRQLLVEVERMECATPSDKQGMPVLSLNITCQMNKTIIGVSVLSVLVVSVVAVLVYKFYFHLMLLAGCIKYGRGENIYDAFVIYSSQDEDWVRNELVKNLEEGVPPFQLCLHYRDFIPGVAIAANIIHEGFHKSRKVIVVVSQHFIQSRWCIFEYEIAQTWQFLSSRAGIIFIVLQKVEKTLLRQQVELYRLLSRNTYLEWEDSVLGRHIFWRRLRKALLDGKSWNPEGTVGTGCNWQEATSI
ASSAY EXPLANATION: Antagonist activity at TLR4 (unknown origin) expressed in human AD293 cells assessed as inhibition of LPS/ATP-stimulated TLR4/NF-kB signaling pathway after 16 hrs by luciferase reporter gene assay
OBSERVATION TYPE: EC50
Kindly format the answer as number then unit.

C[C@@H](OC(=O)c1cccnc1)[C@]1(O)CC[C@@]2(O)[C@]1(C)[C@H](OC(=O)/C=C/c1ccccc1)C[C@@H]1[C@@]3(C)CC[C@H](OC(=O)c4ccccc4)CC3=CC[C@]12O 11.1 µM
COc1ccc(/C=C/C(=O)O[C@H]2CC[C@@]3(C)C(=CC[C@]4(O)[C@@H]3C[C@@H](OC(=O)/C=C(\C)C(C)C)[C@@]3(C)[C@]4(O)CC[C@@]3(O)C(C)=O)C2)cc1 3.95 µM
CC(=O)[C@]1(O)CC[C@@]2(O)[C@]1(C)[C@H](OC(=O)/C=C(\C)C(C)C)C[C@@H]1[C@@]3(C)CCC(=O)CC3=CC[C@]12O 11.7 µM
C[C@@H](OC(=O)c1cccnc1)[C@]1(O)CC[C@@]2(O)[C@]1(C)[C@H](OC(=O)/C=C/c1ccccc1)C[C@@H]1[C@@]3(C)CC[C@H](OC(=O)/C=C/c4ccc([N+](=O)[O-])cc4)CC3=CC[C@]12O 14 µM

Lab note: need EC50 with Toll-like receptor 4 (Homo sapiens, UniProt O00206) for entry C[C@@H](OC(=O)c1cccnc1)[C@]1(O)CC[C@@]2(O)[C@]1(C)[C@H](OC(=O)/C=C/c1ccccc1)C[C@@H]1[C@@]3(C)C=CC(=O)C=C3C=C[C@]12O , please look it up.
6.35 µM

Next up: CC(=O)[C@]1(O)CC[C@@]2(O)[C@]1(C)[C@H](OC(=O)/C=C(\C)C(C)C)C[C@@H]1[C@@]3(C)CC[C@H](Cl)CC3=CC[C@]12O
12 µM

Now the same for CC(=O)[C@]1(O)CC[C@@]2(O)[C@]1(C)[C@H](OC(=O)c1ccc(O)cc1)C[C@@H]1[C@@]3(C)CC[C@H](OC(=O)CCl)CC3=CC[C@]12O
3.27 µM

Try this molecule too: C[C@@H](OC(=O)c1ccccc1O)[C@]1(O)CC[C@@]2(O)[C@]1(C)[C@H](OC(=O)/C=C/c1ccccc1)C[C@@H]1[C@@]3(C)CC[C@H](O)CC3=CC[C@]12O
4.9 µM

----------
TEST SYSTEM: Toll-like receptor 4 (Homo sapiens)
ASSAY EXPLANATION: Antagonist activity at TLR4 in human THP1 cells assessed as inhibition of LPS-stimulated RANTES mRNA level at 10 uM after 16 hrs by RT-PCR method
Format: cell-based
The source made the active and inactive calls. No cut-off for these calls is given here.
Parameter call: string, one of active, inactive

C[C@@H](OC(=O)c1ccccc1O)[C@]1(O)CC[C@@]2(O)[C@]1(C)[C@H](OC(=O)/C=C/c1ccccc1)C[C@@H]1[C@@]3(C)CC[C@H](O)CC3=CC[C@]12O active
CC(=O)[C@]1(O)CC[C@@]2(O)[C@]1(C)[C@H](OC(=O)c1ccc(O)cc1)C[C@@H]1[C@@]3(C)CC[C@H](OC(=O)CCl)CC3=CC[C@]12O active

For this compound, state the assay outcome: CC(=O)[C@]1(O)CC[C@@]2(O)[C@]1(C)[C@H](OC(=O)/C=C(\C)C(C)C)C[C@@H]1[C@@]3(C)CC[C@H](OC(=O)c4ccc(Cl)nc4)CC3=CC[C@]12O
inactive

----------
Test system: AD293
ASSAY EXPLANATION: Cytotoxicity against human AD293 cells assessed as reduction in cell viability at 10 uM after 24 hrs by methylene blue dye based spectrophotometric method
TEST CONTEXT: ad293, 24 h

COMPOUND	Activity
CC(=O)[C@]1(O)CC[C@@]2(O)[C@]1(C)[C@H](OC(=O)/C=C(\C)C(C)C)C[C@@H]1[C@@]3(C)CCC(OC(=O)CCl)CC3=CC[C@]12O (stereo partly drawn)	Toxic
COc1cc(/C=C/C(=O)O[C@H]2CC[C@@]3(C)C(=CC[C@]4(O)[C@@H]3C[C@@H](OC(=O)/C=C/c3ccccc3)[C@@]3(C)[C@]4(O)CC[C@@]3(O)C(C)=O)C2)cc(OC)c1OC	Toxic
CC(=O)[C@]1(O)CC[C@@]2(O)[C@]1(C)[C@H](OC(=O)/C=C/c1ccccc1)C[C@@H]1[C@@]3(C)CC[C@H](OC(=O)/C=C/c4ccc([N+](=O)[O-])cc4)CC3=CC[C@]12O	Toxic

----------
TEST SYSTEM: Toll-like receptor 4 (Homo sapiens)
ASSAY EXPLANATION: Antagonist activity at TLR4 (unknown origin) expressed in human AD293 cells assessed as inhibition of LPS/ATP-stimulated TLR4/NF-kB signaling pathway at 10 uM after 16 hrs by luciferase reporter gene assay
Type: cell-based
Calls of active or inactive are those of the source. No cut-off for these calls is given here.
OBSERVATION TYPE: inhibition

COMPOUND	REPORTED VALUE
COc1cc(/C=C/C(=O)O[C@H]2CC[C@@]3(C)C(=CC[C@]4(O)[C@@H]3C[C@@H](OC(=O)c3ccc(O)cc3)[C@@]3(C)[C@]4(O)CC[C@@]3(OC(=O)/C=C/c3cc(OC)c(OC)c(OC)c3)C(C)=O)C2)cc(OC)c1OC	inactive
CC(=O)[C@]1(OC(=O)c2ccccc2I)CC[C@@]2(O)[C@]1(C)[C@H](OC(=O)c1ccc(O)cc1)C[C@@H]1[C@@]3(C)CC[C@H](OC(=O)c4ccccc4I)CC3=CC[C@]12O	inactive
CC(O)[C@]1(O)CC[C@@]2(O)[C@]1(C)[C@H](OC(=O)c1ccc(O)cc1)C[C@@H]1[C@@]3(C)CC[C@H](O)CC3=CC[C@]12O (stereo partly drawn)	inactive
